assay: JHH-DIPG-1 glioma cell viability, MIPE5.0 library, CellTiter-Glo luminescence, qHTS (AID 1347067); conditions: JHH-DIPG-1 glioma viability, CellTiter-Glo ATP luminescence;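 further: cells exposed to compound for 48 hours before readout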
Results filed as inconclusive are left out. Calls of active or inactive are those of the source. Cut-off not given; nearly all actives show AC50 up to about 26 µM.
recorded_metric: AC50

molecule	value
CC(C)c1cnn2c(NCc3ccccc3)cc(N[C@@H](CO)[C@H](O)CO)nc12	0.417 µM (active)
COc1ccc(C2CC(c3ccccc3)=NN2c2ccc(S(N)(=O)=O)cc2)cc1 (stereo not given)	inactive
N#CC1(c2ccc(NC(=O)c3cccnc3NCc3ccncc3)cc2)CCCC1	inactive
Cc1nc2cccc(N)c2c(=O)n1C1CCC(=O)NC1=O (stereo not given)	inactive
CC(C)NC(=O)C1CCC(n2c(NC(=O)c3ccc(F)cc3)nc3ccc(CN4CCC(C(C)(C)O)CC4)cc32)CC1 (stereo not given)	inactive
CC(C)(C)c1cnc(CSc2cnc(NC(=O)C3CCNCC3)s2)o1	1.18 µM (active)
COc1cc2nc(-c3cc(F)ccc3O)nc(N[C@@H]3CNC[C@H]3C(C)(C)O)c2cc1OC	8.33 µM (active)
CC(C)n1nc(-c2cc3cc(O)ccc3[nH]2)c2c(N)ncnc21	2.63 µM (active)
COc1ccc(CC2SC(=O)NC2=O)cc1C(=O)NCc1ccc(C(F)(F)F)cc1 (stereo not given)	inactive
CC/C(=C(/c1ccc(/C=C/C(=O)O)cc1)c1ccc2[nH]ncc2c1)c1ccc(F)cc1Cl	26.3 µM (active)
O=c1c(-c2ccc(O)cc2)coc2c([C@@H]3O[C@H](CO)[C@@H](O)[C@H](O)[C@H]3O)c(O)ccc12	inactive
C[C@]1(C(=O)N(CCCC(=O)O)Cc2cccc(Cl)c2)CCN1C(=O)c1csc2ccccc12	inactive
Cc1csc(NC(=O)c2sc3nc4c(c(C(F)(F)F)c3c2N)CCC4)n1	inactive
Nc1ccc(/C=C/C(=O)NCc2cc3cc(-c4ccc(C(=O)N5CCC(F)(F)CC5)cc4)cc(-c4ccc(F)cc4)c3o2)cn1	0.525 µM (active)
CC(O)(C#Cc1ccc2c(c1)N(c1nc(N)ncc1Cl)CC2)c1nccs1 (stereo not given)	18.6 µM (active)
COC(=O)C[C@](O)(CCCC(C)(C)O)C(=O)O[C@@H]1C(OC)=CC23CCCN2CCc2cc4c(cc2[C@H]13)OCO4 (stereo not given in full)	0.332 µM (active)
CO[C@@H]1COCC[C@@H]1N[C@@H]1CC[C@@](C(=O)N2CCc3ncc(C(F)(F)F)cc3C2)(C(C)C)C1	inactive
COc1cc2c(NC3CCN(CC4CCCCC4)CC3)nc(N3CCCN(C(C)C)CC3)nc2cc1OCCCN1CCCCC1	20.9 µM (active)
Cn1cc(-c2cc(Oc3cc(F)c(NC(=O)C4(C(=O)Nc5ccccc5)CC4)cc3F)ccn2)cn1	18.6 µM (active)
C[C@H](NC(=O)[C@@H](O)c1cc(F)cc(F)c1)C(=O)N[C@@H]1C(=O)N(C)c2ccccc2-c2ccccc21	inactive
